B1: TPR t1 (parent)
chain: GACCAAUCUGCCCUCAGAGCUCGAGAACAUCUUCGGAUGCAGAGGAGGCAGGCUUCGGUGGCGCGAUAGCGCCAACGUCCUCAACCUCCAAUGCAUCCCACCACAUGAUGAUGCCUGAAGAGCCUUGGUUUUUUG

# Variants of: B1
# protocolNotes: polymerase ribozyme fitness, log enrichment relative to wild type (log ratio); higher = more active; in vitro selection for triplet polymerase activity
Decision: polymerase ribozyme fitness (log ratio) >= -2 yields class 1, all other cases yield class 0.

Identify whether the reported polymerase ribozyme fitness (log ratio) of the following variant is -2 or greater: GACCAAUCUGCCCUCAGAGCUCGAGAACAUCUUCGGAUGCAGAGGAGGCAGGCUUUGGUGGCGCGCUAGCGCCAACGACCUCAACCUCCAAUGCAUCCCACCACAUGAUGAUGCCUGAAGAGCCUUGGUUUUUUG [C56U A66C U78A]
class 0

Identify whether the reported polymerase ribozyme fitness (log ratio) of the following variant is -2 or greater: GACCAAUCUGCCCUCAGAGCUCGAGAACAUCUUCGGAUGAAGAGGAGGCAGGCUUCGGUGGCGCGAUAGCGCUAACGACCUCAACCUCCAAUGCAUCCCACCACAUGAUGAUGCCUGAAGAGCCUUGGUUUUUUG [C40A C73U U78A]
class 1

Identify whether the reported polymerase ribozyme fitness (log ratio) of the following variant is -2 or greater: GACCAAUCUGCCGUGAGAGCUCGAGUACAUCUUCGGAUGCAGAGGAGGCAGGCUUCGGUGGCGCGAUAGCGCCAACGUCCUCAACCUCCAAUGAAUCCCACCACAUGAUGAUGUCUGAAGAGCCUUGGUUUUUUG [C13G C15G A26U C94A C114U]
class 0

Every entry's value here was drawn from the RNAGym collection of RNA variant scans (doi:10.1073/pnas.2313332121).
